Target: Sulfotransferase 1A1 (Rattus norvegicus)
Test: Ratio of kcat/Km determined for catalytic efficiency in sulfonation against AST IV
Record form. Attribute: Ratio. Fill in for each entry.
// no unit, no text: just the number

Form: molecule = OCc1ccoc1 ; Ratio = 0.4

Form: molecule = CN[C@H](C)[C@H](O)c1ccccc1 ; Ratio = 0.1

Form: molecule = CCCCc1ccc(CO)cc1 ; Ratio = 147

Form: molecule = CC[C@H](O)c1ccccc1 ; Ratio = 1.4

Form: molecule = Oc1ccc(-c2ccccc2)cc1 ; Ratio = 79.1

Form: molecule = OCc1c[nH]c2ccccc12 ; Ratio = 38.9

Form: molecule = CCCCCC[C@H](O)c1ccccc1 ; Ratio = 8.8

Form: molecule = CCN(O)c1ccccc1 ; Ratio = 14.2

Form: molecule = O=[N+]([O-])c1ccc(O)c(Cl)c1 ; Ratio = 190

Form: molecule = CCCCc1ccc(O)cc1 ; Ratio = 2230

Form: molecule = Oc1ccc(C23C[C@H]4C[C@@H](C2)C[C@@H](C3)C4)cc1 ; Ratio = 1600

Form: molecule = CCc1ccc(O)cc1 ; Ratio = 1390

Form: molecule = CCCCCCCCCc1ccc(O)cc1 ; Ratio = 28.3

Form: molecule = CN[C@@H](C)C(O)c1ccccc1 (stereo not given in full) ; Ratio = 0.1

Form: molecule = Cc1ccc(CO)cc1 ; Ratio = 28.7

Form: molecule = Oc1ccc2ccccc2c1 ; Ratio = 4790

Form: molecule = ONc1ccc(Cl)cc1 ; Ratio = 45.6

Form: molecule = CC(=O)Nc1ccc(O)cc1 ; Ratio = 66.7

Form: molecule = O=C(CBr)Nc1ccc(O)cc1 ; Ratio = 146

Form: molecule = CCCCCCCc1ccc(O)cc1 ; Ratio = 73.4

Form: molecule = CC(C)[C@H](O)c1ccccc1 ; Ratio = 0.2

Form: molecule = C[C@H](O)c1ccccc1 ; Ratio = 4.6

Form: molecule = CCCc1ccc(O)cc1 ; Ratio = 2410

Form: molecule = CCCCCCc1ccc(CO)cc1 ; Ratio = 109

Form: molecule = Cc1ccc(O)cc1 ; Ratio = 1080

Form: molecule = CCCCCCCc1ccc(CO)cc1 ; Ratio = 11

Form: molecule = ONc1ccccc1 ; Ratio = 6.3

Form: molecule = CCCCCc1ccc(CO)cc1 ; Ratio = 185

Form: molecule = C[C@@H](O)c1ccccc1 ; Ratio = 0.4

Form: molecule = COC(=O)[C@@H](N)Cc1ccc(O)cc1 ; Ratio = 3

Form: molecule = CCCN(O)c1ccccc1 ; Ratio = 20.8

Form: molecule = CCCCCc1ccc(O)cc1 ; Ratio = 784

Form: molecule = CCCC[C@H](O)c1ccccc1 ; Ratio = 103

Form: molecule = CCC[C@H](O)c1ccccc1 ; Ratio = 0.8

Form: molecule = OC1CCCc2ccccc21 (stereo not given) ; Ratio = 32.4

----------
Record form. Attribute: Ratio. Fill in for each entry.
Target: Sulfotransferase 1A1 (Rattus norvegicus, UniProt P17988)
Sequence (P17988 whole entry): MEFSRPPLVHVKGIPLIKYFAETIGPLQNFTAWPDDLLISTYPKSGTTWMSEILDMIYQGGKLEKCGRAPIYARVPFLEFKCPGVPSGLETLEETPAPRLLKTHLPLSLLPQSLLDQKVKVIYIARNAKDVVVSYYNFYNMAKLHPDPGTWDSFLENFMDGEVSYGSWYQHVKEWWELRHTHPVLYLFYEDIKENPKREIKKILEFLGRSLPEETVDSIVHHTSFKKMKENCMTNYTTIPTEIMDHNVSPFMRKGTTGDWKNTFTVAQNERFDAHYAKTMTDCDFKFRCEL
Experiment: Ratio of kcat/Km determined for catalytic efficiency in sulfonation against AST IV
// no unit, no text: just the number

Form: compound = CCCCC[C@H](O)c1ccccc1 ; Ratio = 10.2

Form: compound = OCc1ccccc1 ; Ratio = 20.7

Form: compound = CN(O)c1ccccc1 ; Ratio = 24.2

Form: compound = OCc1ccc2ccccc2c1 ; Ratio = 101

Form: compound = OCc1cccc2ccccc12 ; Ratio = 29.4

Form: compound = CCCc1ccc(CO)cc1 ; Ratio = 151

Form: compound = O=[N+]([O-])c1ccc(CO)cc1 ; Ratio = 3.5

Form: compound = Oc1ccccc1 ; Ratio = 625
